Data origin: patent US10189843B2

Catalogue of compounds with associated pIC50
target: Human autotaxin enzyme (Homo sapiens)
pIC50: −log10 of the molar value.

These solved cases illustrate the format of a correct answer.
What does the data say about its pIC50? Entry: CCCCC1CN(CC(=O)N2CCC[C@@H](C)C2)C(=O)c2cc(-c3ccc(Cl)cc3)nn21 (stereo partly shown)
6.00 to 7.00

And the next one, CCCCCC1CN(CC(=O)N2CCCC2C(=O)O)C(=O)c2cc(-c3ccc(Cl)cc3)nn21 (stereo not shown) ?
7.00 to 8.00

Next entry: CCCCCC1CN(CC(=O)OCC)C(=O)c2cc(-c3ccc(Cl)cc3)nn21 (stereo not shown)
7.00 to 8.00

Now for a further compound.
Please report the recorded pIC50 for `C[C@H]1CN(CC(=O)N(C)CC#N)C(=O)c2cc(-c3ccc(Cl)cc3NC(=O)C3CC3)nn21` .
7.00 to 8.00

---

Reported IC50 values, UniProt:Q13822.

Completed entries (count: 5):
Any idea what IC50 was measured for CCCCC1CN(CC(=O)N(CC#N)CC#N)C(=O)c2cc(-c3ccc(Cl)cc3)nn21 (stereo not shown) [Compound I-0211] ?
10 to 100 nM

Another compound to check: CCCCCC1CN(CC(=O)NCC(=O)N(C)C)C(=O)c2cc(-c3ccc(Cl)cc3)nn21 (stereo not shown) [Compound I-0038]
100 to 1000 nM

CCCCC1CN(Cc2ccc(C#N)cc2)C(=O)c2cc(-c3ccc(S(F)(F)(F)(F)F)cc3)nn21 (stereo not shown) [Compound I-0372] , same question.
100 to 1000 nM

Would you mind doing C[C@H]1CN(Cc2cccc(OCCCN(C)C)c2)C(=O)c2cc(-c3ccc(Cl)cc3)nn21 [Compound I-0166] as well?
≥ 1000 nM

// same read-out, input: CCCCC1CN(CC(=O)N2CCC[C@H](C)C2)C(=O)c2cc(-c3ccc(Cl)cc3)nn21 (stereo partly shown) [Compound I-0242]
100 to 1000 nM

***
Would you kindly share the measured IC50 for CCCCCC1CN(CC(=O)N2CCC(O)C2)C(=O)c2cc(-c3ccc(Cl)cc3)nn21 (stereo not shown) [Compound I-0035] ?
100 to 1000 nM

Now the same for CCCCC1CN(CC(=O)NCC2(CO)COC2)C(=O)c2cc(-c3ccc(Cl)cc3)nn21 (stereo not shown) [Compound I-0237]
100 to 1000 nM

---

Assay system Human autotaxin enzyme (Homo sapiens); read-out recorded as IC50.

Looking for the measured IC50 of CCOC(=O)CN1CC(C2CC2)n2nc(-c3ccc(Cl)cc3)cc2C1=O (centres unmarked) , can you help?
≥ 1000 nM

Continuing:
Which IC50 is listed for CCCCCC1CN(Cc2cccc(OCCCN(C)C)c2)C(=O)c2cc(-c3ccc(Cl)cc3)nn21 (centres unmarked) ?
100 to 1000 nM

And `CCOC(=O)CN1C[C@H](C)n2nc(-c3ccc(Cl)cc3)cc2C1=O` ?
≥ 1000 nM

Also CCCCCC1CN(CC(=O)Nc2ccccc2CC(=O)O)C(=O)c2cc(-c3ccc(Cl)cc3)nn21 (centres unmarked) ?
100 to 1000 nM

Also `CCCCNC(=O)CN1C[C@H](C)n2nc(-c3ccc(Cl)cc3)cc2C1=O` , if possible.
≥ 1000 nM

Continue with CCCCC1CN(CC(=O)NCC(N)=O)C(=O)c2cc(-c3ccc(Cl)cc3)nn21 (centres unmarked)
100 to 1000 nM

Quick one: CCCC1CN(Cc2ccc(C#N)cc2)C(=O)c2cc(-c3ccc(Cl)cc3NC(C)=O)nn21 (centres unmarked)
10 to 100 nM

Follow-up entry: CCCCCC1CN(CC(=O)NC(CCC)C(=O)O)C(=O)c2cc(-c3ccc(Cl)cc3)nn21 (centres unmarked)
< 10 nM
